target: UniProt:Q9P2K8; assay: GCN2 enzymatic endpoint assay: phosphorylation of GFP-eIF2α measured by TR-FRET (Lanthascreen); format: biochemical; settings: GCN2 biochemical IC50; 4 nM GCN2, 2 μM ATP, 80 nM GFP-eIF2α, 90 min RT; read-out: GCN2 activity
Sequence (Q9P2K8 whole entry): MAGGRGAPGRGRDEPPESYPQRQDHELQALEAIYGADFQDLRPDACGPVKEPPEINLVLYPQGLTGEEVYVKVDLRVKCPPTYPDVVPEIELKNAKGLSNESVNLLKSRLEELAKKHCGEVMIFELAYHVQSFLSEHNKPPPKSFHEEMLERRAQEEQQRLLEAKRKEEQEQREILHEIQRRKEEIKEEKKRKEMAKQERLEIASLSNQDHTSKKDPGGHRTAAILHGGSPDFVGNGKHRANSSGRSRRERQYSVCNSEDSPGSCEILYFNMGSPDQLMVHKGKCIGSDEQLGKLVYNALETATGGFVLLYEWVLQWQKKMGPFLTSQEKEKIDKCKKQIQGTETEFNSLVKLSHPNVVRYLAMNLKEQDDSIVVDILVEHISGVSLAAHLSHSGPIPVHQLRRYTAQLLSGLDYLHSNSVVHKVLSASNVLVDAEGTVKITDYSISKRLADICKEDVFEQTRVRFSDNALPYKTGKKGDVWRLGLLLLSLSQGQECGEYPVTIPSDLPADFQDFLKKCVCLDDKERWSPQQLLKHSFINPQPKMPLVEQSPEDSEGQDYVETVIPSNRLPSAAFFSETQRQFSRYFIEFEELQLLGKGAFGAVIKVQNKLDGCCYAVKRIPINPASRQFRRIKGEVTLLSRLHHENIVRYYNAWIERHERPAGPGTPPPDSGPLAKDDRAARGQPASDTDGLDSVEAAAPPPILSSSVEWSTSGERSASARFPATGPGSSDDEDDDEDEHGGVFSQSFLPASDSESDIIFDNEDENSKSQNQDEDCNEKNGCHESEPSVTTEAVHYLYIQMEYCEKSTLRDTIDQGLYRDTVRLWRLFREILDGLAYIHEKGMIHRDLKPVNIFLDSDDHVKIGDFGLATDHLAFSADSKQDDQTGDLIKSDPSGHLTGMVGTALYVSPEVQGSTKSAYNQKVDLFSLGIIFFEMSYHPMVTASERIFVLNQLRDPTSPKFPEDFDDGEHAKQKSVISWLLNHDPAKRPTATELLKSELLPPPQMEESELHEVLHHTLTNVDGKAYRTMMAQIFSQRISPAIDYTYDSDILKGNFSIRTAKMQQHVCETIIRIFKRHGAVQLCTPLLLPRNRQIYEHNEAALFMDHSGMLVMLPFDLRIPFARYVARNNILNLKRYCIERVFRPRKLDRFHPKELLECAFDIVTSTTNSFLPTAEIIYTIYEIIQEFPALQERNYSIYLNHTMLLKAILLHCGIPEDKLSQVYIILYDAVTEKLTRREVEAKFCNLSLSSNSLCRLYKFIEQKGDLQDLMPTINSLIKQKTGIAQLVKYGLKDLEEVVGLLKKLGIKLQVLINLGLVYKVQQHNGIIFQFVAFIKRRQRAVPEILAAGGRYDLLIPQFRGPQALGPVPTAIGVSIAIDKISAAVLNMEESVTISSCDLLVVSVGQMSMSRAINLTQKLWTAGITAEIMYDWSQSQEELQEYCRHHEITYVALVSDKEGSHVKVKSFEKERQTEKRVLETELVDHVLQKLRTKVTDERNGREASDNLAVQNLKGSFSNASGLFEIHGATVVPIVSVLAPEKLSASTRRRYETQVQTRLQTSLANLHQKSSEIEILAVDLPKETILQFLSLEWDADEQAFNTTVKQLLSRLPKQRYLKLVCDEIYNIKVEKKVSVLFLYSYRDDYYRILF
Where a name gives a salt, the structure may show the parent alone.
Listed compounds paired with reported IC50

1) CNC(=O)[C@]1(C)CC[C@@H](Nc2ncc3c(Br)nn(-c4ccc5nccnc5c4)c3n2)C1 (single isomer, unassigned)    25 to 200 nM
2) CN1CCN(C(=O)[C@@H]2CC[C@@H](Nc3ncc4c(Br)nn(-c5ccc(-c6cccnc6)c(F)c5)c4n3)C2)CC1=O    500 to 1000 nM
3) CNC(=O)[C@]1(C)CC[C@@H](Nc2ncc3c(Br)nn(-c4ccc(N5CCOCC5)c(C#N)c4)c3n2)C1 [Example 59, hydrochloride]    25 to 200 nM
4) CNC(=O)[C@]1(C)CC[C@@H](Nc2ncc3c(Br)nn(-c4ccc(-c5ncco5)c(CC#N)c4)c3n2)C1    25 to 200 nM
5) O=C1NCC[C@]12CC[C@@H](Nc1ncc3c(Br)nn(-c4cc(F)c5ncccc5c4)c3n1)C2 [Example 48, hydrochloride]    25 to 200 nM

Per the records, this compound ( CNC(=O)[C@]1(C)CC[C@@H](Nc2ncc3c(Br)nn(-c4cc(CNS(C)(=O)=O)c5ncccc5c4)c3n2)C1 ) has IC50 equal to < 25 nM

Lab note: measured IC50 of CNC(=O)C[C@H]1C[C@H](Nc2ncc3c(Br)nn(-c4cc(Cl)cc([C@H](C)N)c4)c3n2)C1 was 25 to 200 nM

IC50 recorded for this compound, Cc1nnc(-c2ccc(-n3nc(Br)c4cnc(N[C@@H]5CC[C@@H](C(=O)N6CCNC(=O)C6)C5)nc43)cc2)o1 , is 25 to 200 nM

Lookup result for CNC(=O)[C@@H]1CC[C@@H](Nc2ncc3c(Br)nn(-c4ccc(-c5ncco5)cc4)c3n2)C1 ; measured IC50: 25 to 200 nM

Form field IC50, entry CNC(=O)C1(C)CC[C@@H](Nc2ncc3c(Br)nn(-c4cc(Cl)cc(CO)c4)c3n2)C1 (mixture of isomers) : 25 to 200 nM

Briefly, IC50 measured for CNC(=O)[C@]1(C)CC[C@@H](Nc2ncc3c(Br)nn(-c4ccc5ncn(C)c(=O)c5c4)c3n2)C1 : 25 to 200 nM

The compound identified as CNC(=O)[C@]1(C)CC[C@@H](Nc2ncc3c(Br)nn(-c4cccc(NC(=O)c5cnccn5)c4)c3n2)C1 registered its IC50 at 25 to 200 nM

# IC50 of CN(C)C(=O)[C@]1(C)CC[C@@H](Nc2ncc3c(Br)nn(-c4cc(CCN)c5ncccc5c4)c3n2)C1 = < 25 nM

The recorded IC50 for entry COCCO[C@H]1C[C@H](Nc2ncc3c(Br)nn(-c4ccc5ncccc5c4)c3n2)C1 equals 25 to 200 nM

get_value(item= CNC(=O)[C@]1(CCC#N)CC[C@@H](Nc2ncc3c(Br)nn(-c4cc(F)c5ncccc5c4)c3n2)C1 [Example 43, hydrochloride] , readout=IC50) returns < 25 nM

Entry under test: Cn1cnc2ccc(-n3nc(Br)c4cnc(N[C@@H]5CC[C@@](C)(O)C5)nc43)cc2c1=O . Its IC50 was < 25 nM

# IC50 of CNC(=O)[C@]1(C)CC[C@@H](Nc2ncc3c(Br)nn(-c4ccc(-c5nnc(C(C)(C)N)o5)cc4)c3n2)C1 = 25 to 200 nM

The measured IC50 associated with CNC(=O)[C@]1(C)CC[C@@H](Nc2ncc3c(Br)nn(-c4cc(Cl)cc(CO)c4)c3n2)C1 reads 25 to 200 nM

Field IC50 (entry COCCNC(=O)[C@@H]1CCC[C@@H](Nc2ncc3c(Br)nn(-c4ccc5ncccc5c4)c3n2)C1 ) reads 500 to 1000 nM

Reported IC50 ( CNC(=O)[C@@H]1CC[C@@H](Nc2ncc3c(Br)nn(-c4cc(F)c5ncccc5c4)c3n2)C1 ) = 25 to 200 nM
